target of assay: recombinant human serotonin receptor 5-HT2A (Homo sapiens)
Construct: expressed in transfected cells; method B: loaded with Ca2+ dye
Sequence (P28223 whole entry): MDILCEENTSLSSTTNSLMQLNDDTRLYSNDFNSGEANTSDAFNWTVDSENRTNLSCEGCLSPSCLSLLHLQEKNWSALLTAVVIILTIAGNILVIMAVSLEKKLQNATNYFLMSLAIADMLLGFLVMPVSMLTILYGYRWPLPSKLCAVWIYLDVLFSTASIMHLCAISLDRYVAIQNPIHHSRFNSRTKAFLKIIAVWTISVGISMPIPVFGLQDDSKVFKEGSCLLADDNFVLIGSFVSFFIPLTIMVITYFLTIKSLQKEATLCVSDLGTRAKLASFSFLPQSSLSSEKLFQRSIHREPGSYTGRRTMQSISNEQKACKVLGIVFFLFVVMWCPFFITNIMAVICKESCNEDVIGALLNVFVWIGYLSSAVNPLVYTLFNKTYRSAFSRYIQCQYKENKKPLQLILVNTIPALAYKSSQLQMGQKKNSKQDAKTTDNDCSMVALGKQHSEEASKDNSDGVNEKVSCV
test method notes: 5-HT2A antagonist Ca2+ assay in CHO-K1 cells (method A aequorin luminescence / method B FLIPR fluorescence)
Format: cell-based
condition summary: antagonist mode vs EC80 of reference agonist, method A or B, read-out: 5HT2A IC50
reported metric: log10(IC50) (log10 of the value in nM)
Record value = log10 of IC50 given in nM.

Query: // lookup log10(IC50) for `c1ccc2c(c1)CC(CN1CCC3(CCc4ccccc4O3)CC1)C2`
Reply: 2.00

Query: Can you share its log10(IC50)? I mean this compound: c1ccc(O[C@@H]2COC3(CCN(C[C@@H]4CCc5ccccc54)CC3)C2)cc1 (single isomer, unassigned)
Reply: 2.53

Query: Recorded log10(IC50) of O=C1CC2(CN(CC3CCc4ccccc43)C2)Oc2ccccc21 (stereo not shown) , please.
Reply: 3.58

Query: Would you mind telling me what log10(IC50) value was observed for COc1cccc(O[C@@H]2CCN(CC(O)CO[C@H]3CCc4ccccc43)C2)c1 (stereo partly shown) ?
Reply: 3.50

Query: Using the record for `O=C1c2ccc(F)cc2CN1CCN1CCC(Oc2ccc(F)cc2)CC1` , report its log10(IC50).
Reply: 1.70

Query: Look up log10(IC50): `O=C1Nc2ccccc2CC12CCN(C[C@H](O)COc1ccccc1)CC2`
Reply: 2.48

Query: Requested read-out: log10(IC50). Entry: COc1ccc2c(c1)C(CN1CC3(CC(Oc4ccc(F)cc4)CO3)C1)CC2 (stereo not shown)
Reply: 2.46

Query: Which log10(IC50) is reported for this compound? `O=C1c2ccccc2CCCN1CCN1CCC(Oc2ccc(F)cc2)CC1`
Reply: 1.00

Query: Given the compound c1ccc(N2[C@@H]3C[C@H]2CN(CC2CCc4ccccc42)C3)cc1 (stereo partly shown) , what is its reported log10(IC50)?
Reply: 3.01

Query: Value lookup for log10(IC50); key = `Fc1ccc(OC2CCN(CCC3CCOCC3)CC2)cc1`
Reply: 3.05

Query: What does the data say about its log10(IC50)? Entry: N#Cc1cccc2c1CCC2CN1CCC(Oc2ccc(F)cc2)CC1 (stereo not shown)
Reply: 1.95

Query: // lookup log10(IC50) for `O=C(CN1CCC(Oc2ccccc2)CC1)c1ccccc1`
Reply: 2.18

Query: May I ask what log10(IC50) has been recorded for COc1cccc(OC2CCN(CC3Cc4cccnc4C3)CC2)c1 (stereo not shown) ?
Reply: 2.88

Query: What does the record list as log10(IC50) for COc1ccccc1CN1CCC2(CCN(c3ccccc3)C2)C1 (stereo not shown) ?
Reply: 3.32

Query: I have this compound here, `COc1ccc(O[C@H]2CCN(CCN3CCc4ccccc4C3=O)C2)cc1` , and I need its recorded log10(IC50).
Reply: 4.00

Query: Find the recorded log10(IC50) belonging to Fc1ccc(OC2CCN(CC3Cc4ccncc4C3)CC2)cc1 (stereo not shown) and report it.
Reply: 2.18

---

target of assay: human sodium channel NaV1.2 (Homo sapiens, UniProt Q99250)
Sequence (Q99250 whole entry): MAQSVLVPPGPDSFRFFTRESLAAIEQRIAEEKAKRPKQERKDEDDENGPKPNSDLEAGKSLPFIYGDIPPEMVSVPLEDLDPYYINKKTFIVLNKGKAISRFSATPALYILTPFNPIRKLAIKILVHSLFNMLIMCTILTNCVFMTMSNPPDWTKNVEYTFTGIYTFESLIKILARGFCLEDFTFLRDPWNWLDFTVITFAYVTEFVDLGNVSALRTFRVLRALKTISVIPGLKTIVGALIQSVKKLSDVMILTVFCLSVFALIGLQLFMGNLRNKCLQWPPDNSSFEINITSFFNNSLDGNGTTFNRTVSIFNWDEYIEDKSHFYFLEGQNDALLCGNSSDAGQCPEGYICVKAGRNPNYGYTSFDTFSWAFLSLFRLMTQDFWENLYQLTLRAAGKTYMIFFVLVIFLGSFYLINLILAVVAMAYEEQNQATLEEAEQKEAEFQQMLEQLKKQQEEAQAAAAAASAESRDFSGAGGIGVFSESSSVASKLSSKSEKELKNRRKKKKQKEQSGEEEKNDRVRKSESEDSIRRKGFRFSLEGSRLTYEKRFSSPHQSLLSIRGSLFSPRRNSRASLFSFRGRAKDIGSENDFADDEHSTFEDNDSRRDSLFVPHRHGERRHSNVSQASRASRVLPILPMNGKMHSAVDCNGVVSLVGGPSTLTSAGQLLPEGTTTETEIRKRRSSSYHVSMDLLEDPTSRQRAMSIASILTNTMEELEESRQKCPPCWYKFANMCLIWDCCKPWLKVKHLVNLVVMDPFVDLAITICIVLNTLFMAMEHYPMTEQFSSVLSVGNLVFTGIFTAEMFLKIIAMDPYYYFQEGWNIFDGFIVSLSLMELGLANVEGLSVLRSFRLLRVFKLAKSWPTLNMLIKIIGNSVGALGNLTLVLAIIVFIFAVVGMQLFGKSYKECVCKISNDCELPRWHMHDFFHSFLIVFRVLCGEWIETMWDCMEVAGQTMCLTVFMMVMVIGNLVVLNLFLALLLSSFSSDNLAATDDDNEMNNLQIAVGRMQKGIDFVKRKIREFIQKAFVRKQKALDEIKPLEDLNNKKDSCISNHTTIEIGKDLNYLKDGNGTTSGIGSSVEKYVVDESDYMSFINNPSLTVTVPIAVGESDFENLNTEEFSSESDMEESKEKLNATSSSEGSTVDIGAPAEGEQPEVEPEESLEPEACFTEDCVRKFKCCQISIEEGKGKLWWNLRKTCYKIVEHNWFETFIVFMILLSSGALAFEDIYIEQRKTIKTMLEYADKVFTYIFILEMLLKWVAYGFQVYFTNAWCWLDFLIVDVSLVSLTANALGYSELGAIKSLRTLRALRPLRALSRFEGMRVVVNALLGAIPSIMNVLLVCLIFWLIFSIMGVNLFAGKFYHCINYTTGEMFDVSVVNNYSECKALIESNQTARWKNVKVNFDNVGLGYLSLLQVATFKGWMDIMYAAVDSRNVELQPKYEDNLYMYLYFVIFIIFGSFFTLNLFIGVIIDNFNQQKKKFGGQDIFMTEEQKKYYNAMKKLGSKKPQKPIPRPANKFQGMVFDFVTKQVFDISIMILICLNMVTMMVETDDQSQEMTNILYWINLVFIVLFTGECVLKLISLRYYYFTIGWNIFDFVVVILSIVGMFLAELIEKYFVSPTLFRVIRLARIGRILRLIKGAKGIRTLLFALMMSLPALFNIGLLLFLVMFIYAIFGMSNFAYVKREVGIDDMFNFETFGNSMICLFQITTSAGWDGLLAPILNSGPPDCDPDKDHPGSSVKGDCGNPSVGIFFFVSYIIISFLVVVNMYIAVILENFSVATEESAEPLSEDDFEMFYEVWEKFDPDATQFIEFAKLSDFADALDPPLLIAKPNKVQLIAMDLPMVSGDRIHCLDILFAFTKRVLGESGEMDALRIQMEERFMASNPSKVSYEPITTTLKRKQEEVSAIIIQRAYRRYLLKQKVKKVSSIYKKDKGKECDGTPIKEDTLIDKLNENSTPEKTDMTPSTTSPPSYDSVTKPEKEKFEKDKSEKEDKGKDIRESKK
test method notes: NaV1.2 inhibition, automated patch-clamp (Q-Patch HTX), slow inactivated state (state C)
Format: cell-based
condition summary: 10 μM compound; hNaV1.2 CHO cells, slow inactivated state; read-out: NaV1.2 (% inh), 10 μM
Exercise: state measured inhibition at 10 µM for each of the compounds provided.
Response body: numeric value in %, unit text excluded.

Query: Reported inhibition at 10 µM for c1ccc(OC2CCN(CCO[C@@H]3CCc4ccccc43)CC2)cc1 [Example 218] : what is it?
Reply: 72

Query: Consider the compound O=C1c2ccncc2CCN1CCN1CCC(Oc2ccc(F)cc2)CC1 [Example 203] and give its measured inhibition at 10 µM.
Reply: 14

Query: Look at this compound and give its reported inhibition at 10 µM. O=C1Cc2ccccc2N1CCCN1CCC(Oc2ccc(F)cc2)CC1 [Example 219]
Reply: 54

Query: Please look up its inhibition at 10 µM: Cc1cccc(N2CCN(CC3COCc4ccccc43)CC2)c1C (stereo not shown) [Example 57]
Reply: 83

Query: Any idea what its inhibition at 10 µM is? The compound is O[C@H](COC1CCCCC1)CN1C[C@@H]2C[C@H]1CN2Cc1ccccc1 [Example 309]
Reply: 52

Query: Form field: reported inhibition at 10 µM of OC(CO[C@@H]1CCc2ccccc21)CN1CC[C@H](Oc2ccc(F)cc2)C1 (stereo partly shown) [Example 45]
Reply: 85

Query: Value lookup for inhibition at 10 µM; key = COCc1cccc(OC2CCN(CCN3CCCc4ccccc4C3=O)CC2)c1 [Example 206]
Reply: 46

Query: Requested read-out: inhibition at 10 µM. Entry: O=C1c2ccccc2CCN1CCN1CCC(Oc2cccnc2)CC1 [Example 192]
Reply: 15

Query: Given the compound O=C1c2ccccc2CCN1CCN1CCC(Oc2ccccc2)CC1 [Example 191] , what is its reported inhibition at 10 µM?
Reply: 52

Query: Bench note: what inhibition at 10 µM did CN(C)Cc1ccc2c(c1)C(=O)N(CCN1CCC(Oc3ccc(F)cc3)CC1)CCC2 [Example 211] show?
Reply: 50

Query: Could you share which inhibition at 10 µM value was measured for CO[C@@H](CCN1CCC(Oc2ccccc2)CC1)c1ccccc1 [Example 230] ?
Reply: 87

Query: If you can, please state the reported inhibition at 10 µM value of OC(COC1CCCCC1)CN1C[C@H]2C[C@@H](C1)N2c1ccccc1 (stereo partly shown) [Example 294] .
Reply: 47

Query: Which inhibition at 10 µM is reported for this compound? Fc1ccc(OC2CCN(CC3CCc4cccnc43)CC2)cc1 (stereo not shown) [Example 128]
Reply: 72

Query: Any idea what its inhibition at 10 µM is? The compound is O=C1c2ccccc2CCN1CCN1CC[C@@H](Oc2ccc(F)cc2)C1 [Example 25]
Reply: 83

Query: Quick check: inhibition at 10 µM of Fc1ccc(OCCCN2CCN(c3nsc4ccccc34)CC2)cc1 [Example 73] ?
Reply: 91

Query: So what's the measured inhibition at 10 µM for this one? Clc1cccc(N2CCN(CCc3ccccc3)CC2)c1 [Example 64]
Reply: 93

Query: Which inhibition at 10 µM value is on record for O[C@@H](CCN1CCC(Oc2ccccc2)CC1)c1ccccc1 [Example 228] ?
Reply: 52

Query: I would be grateful if you could share the reported inhibition at 10 µM for O=C1c2cccnc2CCN1CCN1CCC(Oc2ccc(F)cc2)CC1 [Example 207] .
Reply: 38

Query: Value lookup for inhibition at 10 µM; key = N#Cc1ccc(OCCN2CCN(c3nsc4ccccc34)CC2)cc1 [Example 67]
Reply: 85

Query: Look at this compound and give its reported inhibition at 10 µM. COc1ccc2c(c1)CCCN(CCN1CCC(Oc3ccc(F)cc3)CC1)C2=O [Example 212]
Reply: 48

Query: Requested read-out: inhibition at 10 µM. Entry: OC(COC1CCCCC1)CN1CCN(Cc2ccccc2)CC1 (stereo not shown) [Example 75]
Reply: 21

Query: Sample OC(COC1CCCCC1)CN1C[C@@H]2C[C@H]1CN2c1ccccc1 (stereo partly shown) [Example 306] — what was its inhibition at 10 µM?
Reply: 60

Query: Sample Clc1ccccc1OCCN1CCN(c2nsc3ccccc23)CC1 [Example 69] — what was its inhibition at 10 µM?
Reply: 91

Query: inhibition at 10 µM; subject: COc1ccc(OC2CCN(CCN3CCc4ccccc4C3=O)CC2)cc1 [Example 202]
Reply: 62

Query: Could you share which inhibition at 10 µM value was measured for COc1cccc(OCCN2CCC(Oc3ccccc3)CC2)c1 [Example 224] ?
Reply: 81

Query: Looking for the measured inhibition at 10 µM of O=C(CN1CCN(c2cccc(Cl)c2)CC1)c1ccccc1 [Example 66] , can you help?
Reply: 55

Query: Can you look up the measured inhibition at 10 µM of O=C1c2ccccc2CCN1CCN1CCC(Oc2ccc(F)cc2)CC1 [Example 200] for me?
Reply: 73

Query: Dear colleague, I am looking for the recorded inhibition at 10 µM of the following compound: O=C(NCCN1CCCCC1)c1cccc(-c2ccc(Oc3ccc(F)cc3)cc2)n1 [Example 447]
Reply: 99

Query: Request the reported inhibition at 10 µM associated with COc1ccccc1CCN1CCC2(CCc3ccccc3O2)CC1 [Example 428]
Reply: 86

Query: // query inhibition at 10 µM value for entry COc1cccc(CN2CCC3(CCc4ccccc4O3)CC2)c1 [Example 417]
Reply: 94

Query: So what does the record say about inhibition at 10 µM for OC(COc1ccccc1)CN1CCC2(CC1)Cc1ccccc1O2 (stereo not shown) [Example 399] ?
Reply: 92

Query: Tell me the measured inhibition at 10 µM of O=C1c2ccccc2CCCN1CCCN1CCC(Oc2ccc(F)cc2)CC1 [Example 223] , please.
Reply: 68

Query: Report inhibition at 10 µM for c1ccc(OC2CCN(CCOc3ccc4cccnc4c3)CC2)cc1 [Example 232] please.
Reply: 76

Query: Which inhibition at 10 µM reading was recorded for the compound Clc1cccc(N2CCN(Cn3c(COc4ccccc4)nc4ccccc43)CC2)c1 [Example 61] ?
Reply: 8

Query: Can you look up the measured inhibition at 10 µM of O[C@H](CCN1CCC(Oc2ccccc2)CC1)c1ccccc1 [Example 227] for me?
Reply: 53

Query: Which inhibition at 10 µM value belongs to NCCOc1ccc2c(c1)C(CN1CCC(Oc3ccc(F)cc3)CC1)CC2 (stereo not shown) [Example 114] ?
Reply: 52

Query: For the compound O[C@@H](COC1CCCCC1)CN1C[C@@H]2C[C@H]1CN2Cc1ccccc1 [Example 308] , what inhibition at 10 µM is on record?
Reply: 27

Query: Entry under review: COc1ccc2c(c1)C(CN1CC3(CC(Oc4ccc(F)cc4)CO3)C1)CC2 (stereo not shown) [Example 369] . Reported inhibition at 10 µM?
Reply: 64

Query: What measured inhibition at 10 µM goes with CN(C)c1ccc(OC2CCN(CCN3CCc4ccccc4C3=O)CC2)cc1 [Example 201] ?
Reply: 39

Query: So what does the record say about inhibition at 10 µM for O=C1c2ccccc2CCN1CCN1CCC(Oc2cccc(F)c2)CC1 [Example 193] ?
Reply: 66

Measured values drawn from patent US11186564B2 for this set.
